Biological target: T1, canine NGF tagged at the C-terminus with the Flag tag (canine, UniProt A0A8I3PYI3 122-241)
T1 construct: mature; Expressed with baculovirus technology; also called feline NGF (processed form identical)
T1 sequence (A0A8I3PYI3 entry or part of it): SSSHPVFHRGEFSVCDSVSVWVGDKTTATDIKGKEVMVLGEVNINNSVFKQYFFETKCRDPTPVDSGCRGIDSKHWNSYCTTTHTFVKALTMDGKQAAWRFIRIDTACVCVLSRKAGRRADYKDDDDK
Experiment: SPR off-rate screen, Fab-SASA on BSA chip
The following binders are shown together with reported Ratio WT-kd/clone-kd values.

{"Binder": "felinized clone 101 Fab-SASA variant S30L (VL) (Fab, V domains shown, not shown: small tags and cut ends) VH: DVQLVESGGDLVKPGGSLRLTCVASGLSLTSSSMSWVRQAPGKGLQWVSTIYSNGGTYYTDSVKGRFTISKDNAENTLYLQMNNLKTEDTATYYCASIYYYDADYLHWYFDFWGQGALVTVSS VL: EIQMTQSPTSLSASVGDRVTITCRASEGILNNLSWYQQTPGKAPKLLIYATSNLHSGVPSRFSGSGSGTDFTLTISSLQPEDFATYYCQQGYKWPLTFGGGTKLEITR", "Ratio WT-kd/clone-kd": 1.86}
{"Binder": "felinized clone 101 Fab-SASA variant Y99F (VH) (Fab, V domains shown, not shown: small tags and cut ends) VH: DVQLVESGGDLVKPGGSLRLTCVASGLSLTSSSMSWVRQAPGKGLQWVSTIYSNGGTYYTDSVKGRFTISKDNAENTLYLQMNNLKTEDTATYYCASIFYYDADYLHWYFDFWGQGALVTVSS VL: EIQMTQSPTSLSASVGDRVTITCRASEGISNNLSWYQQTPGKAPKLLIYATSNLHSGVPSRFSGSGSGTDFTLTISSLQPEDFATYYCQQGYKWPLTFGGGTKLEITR", "Ratio WT-kd/clone-kd": 2.01}
{"Binder": "felinized clone 101 Fab-SASA variant N53I (VL) (Fab, V domains shown, not shown: small tags and cut ends) VH: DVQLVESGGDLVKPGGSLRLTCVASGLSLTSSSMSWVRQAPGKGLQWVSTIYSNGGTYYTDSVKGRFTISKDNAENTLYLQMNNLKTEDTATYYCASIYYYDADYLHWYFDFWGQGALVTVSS VL: EIQMTQSPTSLSASVGDRVTITCRASEGISNNLSWYQQTPGKAPKLLIYATSILHSGVPSRFSGSGSGTDFTLTISSLQPEDFATYYCQQGYKWPLTFGGGTKLEITR", "Ratio WT-kd/clone-kd": 2.42}
